- Assay System: T1, HLA-DP4 molecule DP401 (DPA1*0103/DPB1*0401) (human), P20036
- T1 chain 1: not shown
- T1 chain 2: not shown
- T1 sequence (P20036 29-222 limits assumed, chain 1 of 4, other chains not shown): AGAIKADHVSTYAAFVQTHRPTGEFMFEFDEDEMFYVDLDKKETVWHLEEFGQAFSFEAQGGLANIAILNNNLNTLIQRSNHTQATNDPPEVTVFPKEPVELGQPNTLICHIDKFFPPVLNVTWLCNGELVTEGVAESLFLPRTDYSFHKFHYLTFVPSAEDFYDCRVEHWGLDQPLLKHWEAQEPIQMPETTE
- T1 sequence (P04440 30-225 limits assumed, chain 2 of 4, other chains not shown, further chain): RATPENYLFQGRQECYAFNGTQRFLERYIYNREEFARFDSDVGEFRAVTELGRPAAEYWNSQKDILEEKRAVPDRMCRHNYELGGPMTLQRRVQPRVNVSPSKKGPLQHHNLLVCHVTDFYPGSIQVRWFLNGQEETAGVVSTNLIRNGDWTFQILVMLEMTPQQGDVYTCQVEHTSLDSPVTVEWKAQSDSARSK
- Experimental Protocol: direct binding ELISA, 10^-7 M peptide
Attribute Measured: RF (fluorescence with DP4/without DP4)

* PKYVKQNTLKLAT (modifications not checked) [bHA 306-318] | 4.7
* GVQIVRQIRSGERFLKIWSQ (modifications not checked) [bNS-p2] | 4.2
* IAFNSGMEPGVVAEKV (modifications not checked) [bMT 451-466] | 4
* RELWWVFYAGDRALEEPHAE (modifications not checked) [bUL21 283-302] | 13.3
* LLTQHFVQENYLEY (modifications not checked) [bMAG 245-258] | 6.7
